# Tested on: HT-29 (Colorectal Carcinoma);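 note: after 72 h of two-drug dosing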
# protocol_notes: Bliss excess, mean over the matrix (fraction); higher = more synergy
measured_endpoint: Bliss excess
Respond numerically, and do not add a unit to the figure.

I am curious: what Bliss excess value has been reported for CN(C)CCCOc1ccc(-c2ccc3ncc4c(c3c2)n(C2CCOCC2)c(=O)n4C)cn1 [AZD0156] + C[C@@H]1COCCN1C2=NC(=NC(=C2)C3(CC3)[S@](=N)(=O)C)C4=C5C=CNC5=NC=C4 [AZD6738] (first compound max 1 µM, 7x7, partner max 10 µM) ? -0.0211

Please give the result for O=C(c1cc(Cc2n[nH]c(=O)c3ccccc23)ccc1F)N1CCN(C(=O)C2CC2)CC1 [Olaparib] + CN(CC[C@H](CSC1=CC=CC=C1)NC2=C(C=C(C=C2)S(=O)(=O)NC(=O)C3=CC=C(C=C3)N4CCC(CC4)[C@H](C5=CC=CC=C5C6=CC=C(C=C6)Cl)O)S(=O)(=O)C(F)(F)F)CCO [AZD4320] (first compound max 10 µM, 7x7, partner max 1 µM) too. -0.0278

Same lookup for CN(CCO)CC[C@H](CSc1ccccc1)Nc1ccc(S(=O)(=O)NC(=O)c2ccc(N3CCC([C@@H](O)c4ccccc4-c4ccc(Cl)cc4)CC3)cc2)cc1S(=O)(=O)C(F)(F)F [AZD4320] + CS(=O)(=O)CCNCc1ccc(-c2ccc3ncnc(Nc4ccc(OCc5cccc(F)c5)c(Cl)c4)c3c2)o1 [Lapatinib] (first compound max 1 µM, 7x7, partner max 10 µM) , please. -0.0113

And the next one, C[C@@H](Oc1cc(-c2cnn(C3CCNCC3)c2)cnc1N)c1c(Cl)ccc(F)c1Cl [Crizotinib] + Cn1cnc2c(F)c(Nc3ccc(Br)cc3Cl)c(C(=O)NOCCO)cc21 [Selumetinib] (first compound max 10 µM, 7x7, partner max 10 µM) ? -0.018

// repeat for CC1(C)CCC(CN2CCN(c3ccc(C(=O)NS(=O)(=O)c4ccc(NCC5CCOCC5)c([N+](=O)[O-])c4)c(Oc4cnc5[nH]ccc5c4)c3)CC2)=C(c2ccc(Cl)cc2)C1 [Venetoclax] + CCN(CCO)CCCOc1ccc2c(Nc3cc(CC(=O)Nc4cccc(F)c4)[nH]n3)ncnc2c1 [AZD2811] (first compound max 1 µM, 7x7, partner max 1 µM) and report 0.0012

Likewise for CC(=O)c1c(C)c2cnc(Nc3ccc(N4CCNCC4)cn3)nc2n(C2CCCC2)c1=O [Palbociclib] + Cn1cnc2c(F)c(Nc3ccc(Br)cc3Cl)c(C(=O)NOCCO)cc21 [Selumetinib] (first compound max 10 µM, 7x7, partner max 10 µM) ? 0.0336
